# appliedConditions: 313.15 K; 102 kPa; Liquid; Vibrating tube method
reportedProperty: mass density (kg/m3)
One number for each entry, in kg/m3.

Solved entries (count: 6):
CCCCCCCCCCC1CCCCC1: 805.02
CCCCCCCCCCCCC1CCCCC1: 809.03
CCCCCCC1CCCCC1: 793.43
CCCCCCCC1CCCCC1: 796.95
CCCCCC1CCCCC1: 789.49
CCCC1CCCCC1: 777.88

// next item, mass density requested
Field mass density (entry `CCCCCCCCC1CCCCC1` ) reads 800.28

====

# appliedConditions: 288.15 K; 102 kPa; Liquid; Frequency=3 MHz; Single path-length method
reportedProperty: speed of sound (m/s)
Answers are plain numbers, in m/s.

CCCCCCCCC1CCCCC1: 1405.5
CCCCCCCCCCC1CCCCC1: 1425.2
CCCCCCCC1CCCCC1: 1393.6
CCCCCCCCCCCCC1CCCCC1: 1441.5
CCCCCCC1CCCCC1: 1380.4

Batch: speed of sound for all items listed.
1. CCCCCC1CCCCC1
2. CCCC1CCCCC1
3. CCCCCCCCCCCC

Response given:
1. 1365.8
2. 1328.6
3. 1317.2

====

# appliedConditions: 303.15 K; 102 kPa; Liquid; Concentric cylinders viscometry
Exercise: state measured viscosity for each of the molecules provided.
Give bare numbers, in mPa·s.

Solved entries (count: 5):
CCCCCC1CCCCC1: 1.43
CCCCCCC1CCCCC1: 1.79
CCCCCCCCCCCC: 1.27
CCCCCCCCCCC1CCCCC1: 4.09
CCCCCCCC1CCCCC1: 2.25

Batch: viscosity for all items listed.
1. CCCC1CCCCC1
2. CCCCCCCCCCCCC1CCCCC1
3. CCCCCCCCC1CCCCC1

Response given:
0.856
5.81
2.79

====

# appliedConditions: 313.15 K; 102 kPa; Liquid; Frequency=3 MHz; Single path-length method
reportedProperty: speed of sound (m/s)
Give bare numbers, in m/s.

Solved entries (count: 7):
CCCCCCCCC1CCCCC1: 1311.6
CCCC1CCCCC1: 1226.2
CCCCCCCC1CCCCC1: 1298.8
CCCCCCCCCCCCC1CCCCC1: 1350.5
CCCCCCCCCCC1CCCCC1: 1332.8
CCCCCCC1CCCCC1: 1284.2
CCCCCC1CCCCC1: 1268.2

// next item, speed of sound requested
Field speed of sound (entry `CCCCCCCCCCCC` ) reads 1221.1

====

# appliedConditions: 288.15 K; 102 kPa; Liquid; Vibrating tube method
Exercise: state measured mass density for each of the compounds provided.
One number for each entry, in kg/m3.

Solved entries (count: 4):
CCCCCCC1CCCCC1 [hexylcyclohexane]: 811.34
CCCCCCCCC1CCCCC1 [octylcyclohexane]: 817.58
CCCCCCCCCCC1CCCCC1 [decylcyclohexane]: 821.93
CCCC1CCCCC1 [1-cyclohexylpropane]: 797.42

Batch: mass density for all items listed.
1. CCCCCC1CCCCC1 [pentylcyclohexane]
2. CCCCCCCC1CCCCC1 [heptylcyclohexane]
3. CCCCCCCCCCCCC1CCCCC1 [dodecylcyclohexane]
4. CCCCCCCCCCCC [dodecane]

Response given:
1: 807.78; 2: 814.51; 3: 825.71; 4: 752.35

Data credit: the NIST ThermoML archive (doi:10.1021/acs.jced.8b01135)
